organism: Mus musculus; assay: Percent of injected 238-Plutonium(IV) in mice liver at 24 h; assay type: ADME, organism-based; settings: in vivo
measured.property: ID (%)

| structure | unit.descriptor | ID |
| --- | --- | --- |
| O=C(NCCCN(CCCCN(CCCNC(=O)c1cccc(O)c1O)C(=O)c1cccc(=O)n1O)C(=O)c1cccc(=O)n1O)c1cccc(O)c1O | % | 21 |
| O=C(NCCCN(CCCCN(CCCNC(=O)c1cccc(O)c1O)C(=O)c1cccc(=O)n1O)C(=O)c1cccc(O)c1O)c1cccc(O)c1O | % | 12 |
| O=C(NCCCN(CCCCN(CCCNC(=O)c1cccc(=O)n1O)C(=O)c1cccc(=O)n1O)C(=O)c1cccc(=O)n1O)c1cccc(=O)n1O | % | 8.9 |
| O=C(NCCCN(CCCCN(CCCNC(=O)c1cccc(O)c1O)C(=O)c1cccc(O)c1O)C(=O)c1cccc(O)c1O)c1cccc(O)c1O | % | 26 |

P. O=C(NCCCN(CCCCN(CCCNC(=O)c1cc(S(=O)(=O)O)cc(O)c1O)C(=O)c1cc(S(=O)(=O)O)cc(O)c1O)C(=O)c1cc(S(=O)(=O)O)cc(O)c1O)c1cc(S(=O)(=O)O)cc(O)c1O
Q. O=C(O)c1ccc(C(=O)NCCCN(CCCCN(CCCNC(=O)c2ccc(C(=O)O)c(O)c2O)C(=O)c2ccc(C(=O)O)c(O)c2O)C(=O)c2ccc(C(=O)O)c(O)c2O)c(O)c1O
Qu. Lab note: record which item had the higher ID, P or Q . Identify your pick by its label.
Ans. P
(P: 25%, Q: 11%)
